I'd be grateful if you could share measured GI50 for these entries.
tested on: T-Rex 293 cell line SC3 cells lacking increased expression of androgen receptor protein; test: Cellular growth inhibition, T-Rex 293 SC3 cells without doxycycline, CellTiter-Glo; type: cell-based; conditions: 72 h, T-Rex 293 SC3 cells not exposed to doxycycline, CellTiter-Glo 2.0

**Q:** Retrieve GI50 measured for "Cc1sc2c(c1C)C(c1ccc(CC[C@@H]3CC[C@@]4(CCCN(c5ncc(C(=O)N[C@H]6C(C)(C)[C@H](Oc7ccc(C#N)c(Cl)c7)C6(C)C)cn5)C4)C3)cc1)=N[C@H](Cc1ncco1)c1nnc(C)n1-2" and print it.
**A:** > 3000 nM

**Q:** Retrieve GI50 measured for Cc1sc2c(c1C)C(c1ccc(NCC3CCCCN3c3ncc(C(=O)N[C@H]4C(C)(C)[C@H](Oc5ccc(C#N)c(Cl)c5)C4(C)C)cn3)cc1)=NC(Cc1ncco1)c1nnc(C)n1-2 (some centres unmarked) and print it.
**A:** < 500 nM

**Q:** Retrieve GI50 measured for "Cc1sc2c(c1C)C(c1ccc(N3CCC(C)(Nc4ncc(C(=O)N[C@H]5C(C)(C)[C@H](Oc6ccc(C#N)c(Cl)c6)C5(C)C)cn4)CC3)cc1)=N[C@@H](Cc1ncco1)c1nnc(C)n1-2" and print it.
**A:** > 3000 nM

**Q:** Retrieve GI50 measured for "Cc1sc2c(c1C)C(c1ccc(C=C3CC4(CCCN(c5ncc(C(=O)N[C@H]6C(C)(C)[C@H](Oc7ccc(C#N)c(Cl)c7)C6(C)C)cn5)C4)C3)cc1)=N[C@@H](Cc1ncco1)c1nnc(C)n1-2" and print it.
**A:** 500 to 1500 nM

**Q:** Retrieve GI50 measured for "Cc1sc2c(c1C)C(c1ccc(C(=O)N3CC[C@]4(CCCN(c5ncc(C(=O)N[C@H]6C(C)(C)[C@H](Oc7ccc(C#N)c(Cl)c7)C6(C)C)cn5)C4)C3)cc1)=N[C@@H](Cc1ncco1)c1nnc(C)n1-2" and print it.
**A:** > 3000 nM

**Q:** Retrieve GI50 measured for "Cc1sc2c(c1C)C(c1ccc(CCNC(=O)NCc3ncc(C(=O)N[C@H]4C(C)(C)[C@H](Oc5ccc(C#N)c(Cl)c5)C4(C)C)cn3)cc1)=N[C@H](Cc1ncco1)c1nnc(C)n1-2" and print it.
**A:** > 3000 nM

**Q:** Retrieve GI50 measured for "Cc1sc2c(c1C)C(c1ccc(CC3CC4(CCN(c5ccc(C(=O)N(C)[C@H]6C(C)(C)[C@H](Oc7ccc(C#N)c(Cl)c7)C6(C)C)cn5)CC4)C3)cc1)=N[C@@H](C)c1nnc(C)n1-2" and print it.
**A:** > 3000 nM

**Q:** Retrieve GI50 measured for "Cc1sc2c(c1C)C(c1ccc(OC[C@@H]3CCCN(c4ncc(C(=O)N[C@H]5C(C)(C)[C@H](Oc6ccc(C#N)c(Cl)c6)C5(C)C)cn4)C3)cc1)=N[C@@H](Cc1ncco1)c1nnc(C)n1-2" and print it.
**A:** < 500 nM

**Q:** Retrieve GI50 measured for "CC[C@@H]1N=C(c2ccc(CC3CC4(CCN(c5ncc(C(=O)N[C@H]6C(C)(C)[C@H](Oc7ccc(C#N)c(Cl)c7)C6(C)C)cn5)CC4)C3)cc2)c2c(sc(C)c2C)-n2c(C)nnc21" and print it.
**A:** > 3000 nM

**Q:** Retrieve GI50 measured for "Cc1sc2c(c1C)C(c1ccc(C(=O)N3CCC[C@@H](C(=O)c4ncc(C(=O)N[C@H]5C(C)(C)[C@H](Oc6ccc(C#N)c(Cl)c6)C5(C)C)cn4)C3)cc1)=N[C@@H](Cc1ncco1)c1nnc(C)n1-2" and print it.
**A:** > 3000 nM

**Q:** Retrieve GI50 measured for "Cc1sc2c(c1C)C(c1ccc(Cl)cc1)=N[C@@H](CC(=O)NCCCN1CCN(CC3CCN(c4ncc(C(=O)N[C@H]5C(C)(C)[C@H](Oc6ccc(C#N)c(Cl)c6)C5(C)C)cn4)CC3)CC1)c1nnc(C)n1-2" and print it.
**A:** 500 to 1500 nM

**Q:** Retrieve GI50 measured for Cc1sc2c(c1C)C(c1ccc(CN3CCC4(CCCN(c5ncc(C(=O)N[C@H]6C(C)(C)[C@H](Oc7ccc(C#N)c(Cl)c7)C6(C)C)cn5)C4)C3)cc1)=N[C@H](Cc1ncco1)c1nnc(C)n1-2 (some centres unmarked) and print it.
**A:** 500 to 1500 nM

**Q:** Retrieve GI50 measured for "Cc1sc2c(c1C)C(c1ccc(CNC(=O)[C@@H]3CCCN(c4ncc(C(=O)N[C@H]5C(C)(C)[C@H](Oc6ccc(C#N)c(Cl)c6)C5(C)C)cn4)C3)cc1)=N[C@@H](Cc1ncco1)c1nnc(C)n1-2" and print it.
**A:** 1500 to 3000 nM

**Q:** Retrieve GI50 measured for "CCNC(=O)C[C@@H]1N=C(c2ccc(N3CC(N(C)C4CN(c5ncc(C(=O)N[C@H]6C(C)(C)[C@H](Oc7ccc(C#N)c(Cl)c7)C6(C)C)cn5)C4)C3)cc2)c2c(sc(C)c2C)-n2c(C)nnc21" and print it.
**A:** 500 to 1500 nM

**Q:** Retrieve GI50 measured for Cc1sc2c(c1C)C(c1ccc(C[C@H]3CCC4(CCCN(c5ncc(C(=O)N[C@H]6C(C)(C)[C@H](Oc7ccc(C#N)c(Cl)c7)C6(C)C)cn5)C4)C3)cc1)=N[C@@H](Cc1ncco1)c1nnc(C)n1-2 (some centres unmarked) and print it.
**A:** > 3000 nM

**Q:** Retrieve GI50 measured for "Cc1sc2c(c1C)C(c1ccc(CC[C@@H]3CC[C@@]4(CCCN(c5ncc(C(=O)N[C@H]6C(C)(C)[C@H](Oc7ccc(C#N)c(Cl)c7)C6(C)C)cn5)C4)C3)cc1)=N[C@@H](Cc1ncco1)c1nnc(C)n1-2" and print it.
**A:** > 3000 nM

**Q:** Retrieve GI50 measured for "Cc1sc2c(c1C)C(c1ccc([C@H]3C[C@H](C[C@@H]4CCCN(c5ncc(C(=O)N[C@H]6C(C)(C)[C@H](Oc7ccc(C#N)c(Cl)c7)C6(C)C)cn5)C4)C3)cc1)=N[C@@H](Cc1ncco1)c1nnc(C)n1-2" and print it.
**A:** > 3000 nM
